Tested on: EB–DNA adduct (CT DNA)
TEST DESCRIPTION: Competitive study with EB (EB–DNA fluorescence quenching)
Type: binding, calf
CONDITION LABEL: λemission = 592 nm, final value (up to), Figure S14
Reported values of EB–DNA relative fluorescence emission intensity, % of the initial (I/Io) for individual entries
EXPERIMENTAL ENDPOINT: EB–DNA relative fluorescence emission intensity, % of the initial (I/Io) (%)

{"COMPOUND": "CN1CCN(c2c(F)cc3c(=O)c(C(=O)[O-])cn(CCF)c3c2F)CC1.CN1CCN(c2c(F)cc3c(=O)c(C(=O)[O-])cn(CCF)c3c2F)CC1.[Mn+2].c1ccc(-c2ccccn2)nc1 [complex 9, [Mn(flrx)2(bipy)]]", "UNIT DESCRIPTOR": "%", "RECORDED NUMBER": 26.2}
{"COMPOUND": "CN1CCN(c2c(F)cc3c(=O)c(C(=O)[O-])cn(CCF)c3c2F)CC1.CN1CCN(c2c(F)cc3c(=O)c(C(=O)[O-])cn(CCF)c3c2F)CC1.[Zn+2].c1cnc2c(c1)ccc1cccnc12 [complex 14, [Zn(flrx)2(phen)]]", "UNIT DESCRIPTOR": "%", "RECORDED NUMBER": 22.1}
{"COMPOUND": "CN1CCN(c2c(F)cc3c(=O)c(C(=O)O)cn(CCF)c3c2F)CC1", "UNIT DESCRIPTOR": "%", "RECORDED NUMBER": 34.2}
{"COMPOUND": "CN1CCN(c2c(F)cc3c(=O)c(C(=O)[O-])cn(CCF)c3c2F)CC1.[Cl-].[Cu+2].c1ccc(Nc2ccccn2)nc1 [complex 7, [Cu(flrx)(bipyam)Cl]]", "UNIT DESCRIPTOR": "%", "RECORDED NUMBER": 37.3}
{"COMPOUND": "CN1CCN(c2c(F)cc3c(=O)c(C(=O)[O-])cn(CCF)c3c2F)CC1.[Cl-].[Cu+2].c1cnc2c(c1)ccc1cccnc12 [complex 8, [Cu(flrx)(phen)Cl]]", "UNIT DESCRIPTOR": "%", "RECORDED NUMBER": 33.6}
{"COMPOUND": "CN1CCN(c2c(F)cc3c(=O)c(C(=O)[O-])cn(CCF)c3c2F)CC1.CN1CCN(c2c(F)cc3c(=O)c(C(=O)[O-])cn(CCF)c3c2F)CC1.[Mn+2].c1ccc(Nc2ccccn2)nc1 [complex 10, [Mn(flrx)2(bipyam)]]", "UNIT DESCRIPTOR": "%", "RECORDED NUMBER": 18.9}
{"COMPOUND": "CN1CCN(c2c(F)cc3c(=O)c(C(=O)[O-])cn(CCF)c3c2F)CC1.CN1CCN(c2c(F)cc3c(=O)c(C(=O)[O-])cn(CCF)c3c2F)CC1.CO.CO.[Co+2] [complex 4, [Co(flrx)2(MeOH)2]]", "UNIT DESCRIPTOR": "%", "RECORDED NUMBER": 35.9}
{"COMPOUND": "CN1CCN(c2c(F)cc3c(=O)c(C(=O)[O-])cn(CCF)c3c2F)CC1.CN1CCN(c2c(F)cc3c(=O)c(C(=O)[O-])cn(CCF)c3c2F)CC1.[Co+2].c1ccc(-c2ccccn2)nc1 [complex 15, [Co(flrx)2(bipy)]]", "UNIT DESCRIPTOR": "%", "RECORDED NUMBER": 19.6}
{"COMPOUND": "CN1CCN(c2c(F)cc3c(=O)c(C(=O)[O-])cn(CCF)c3c2F)CC1.CN1CCN(c2c(F)cc3c(=O)c(C(=O)[O-])cn(CCF)c3c2F)CC1.O.O.[Mn+2] [complex 2, [Mn(flrx)2(H2O)2]]", "UNIT DESCRIPTOR": "%", "RECORDED NUMBER": 15.6}
{"COMPOUND": "CN1CCN(c2c(F)cc3c(=O)c(C(=O)[O-])cn(CCF)c3c2F)CC1.CN1CCN(c2c(F)cc3c(=O)c(C(=O)[O-])cn(CCF)c3c2F)CC1.[Mn+2].c1cnc2c(c1)ccc1cccnc12 [complex 11, [Mn(flrx)2(phen)]]", "UNIT DESCRIPTOR": "%", "RECORDED NUMBER": 23.3}
